Target: Bromodomain-containing protein 4 (Homo sapiens)
Test: Inhibition of recombinant human BRD4-1 (44 to 168 residues) expressed in bacterial expression system by bromoscan assay
assay_readout: log10(Kd) (log10 of the value in nM)
Note: values are log10 of Kd expressed in nM.

Solved cases below.
CCS(=O)(=O)Nc1ccc(Oc2ccc(Cl)cc2)c(-c2cn(C)c(=O)c3ccccc23)c1 | 0.56
Cc1cnc(Nc2ccc(C(=O)NC3CCN(C(=O)COCCOCC(=O)N4CCC(NC(=O)c5ccc(Nc6ncc(C)c(Nc7ccc(Cl)c(NS(=O)(=O)C(C)(C)C)c7)n6)cc5F)CC4)CC3)c(F)c2)nc1Nc1ccc(Cl)c(NS(=O)(=O)C(C)(C)C)c1 | 0.60
Cc1cnc(Nc2ccc(C(=O)NC3CCN(C(=O)CCOCCOCCOCCOCCOCCC(=O)N4CCC(NC(=O)c5ccc(Nc6ncc(C)c(Nc7ccc(Cl)c(NS(=O)(=O)C(C)(C)C)c7)n6)cc5F)CC4)CC3)c(F)c2)nc1Nc1ccc(Cl)c(NS(=O)(=O)C(C)(C)C)c1 | 0.66
Cc1cnc(Nc2ccc(C(=O)NC3CCN(C(=O)CCOCCOCCOCCOCCC(=O)N4CCC(NC(=O)c5ccc(Nc6ncc(C)c(Nc7ccc(Cl)c(NS(=O)(=O)C(C)(C)C)c7)n6)cc5F)CC4)CC3)c(F)c2)nc1Nc1ccc(Cl)c(NS(=O)(=O)C(C)(C)C)c1 | 0.81

Field: next compound
QUERY: Retrieve log10(Kd) measured for `Cn1cc(-c2cccc(N3CCCC3=O)c2)c2ccccc2c1=O` and print it.
RESULT: 2.53
